Where do these numbers come from? They come from patent US9868746B2.

experimentalSystem: mAChR M4 (Homo sapiens)
Construct: expressed in transfected cells; host or cells: CHO-K1 cells stably transfected with M4 cDNA and chimeric G-protein Gqi5
Sequence (P08173 whole entry): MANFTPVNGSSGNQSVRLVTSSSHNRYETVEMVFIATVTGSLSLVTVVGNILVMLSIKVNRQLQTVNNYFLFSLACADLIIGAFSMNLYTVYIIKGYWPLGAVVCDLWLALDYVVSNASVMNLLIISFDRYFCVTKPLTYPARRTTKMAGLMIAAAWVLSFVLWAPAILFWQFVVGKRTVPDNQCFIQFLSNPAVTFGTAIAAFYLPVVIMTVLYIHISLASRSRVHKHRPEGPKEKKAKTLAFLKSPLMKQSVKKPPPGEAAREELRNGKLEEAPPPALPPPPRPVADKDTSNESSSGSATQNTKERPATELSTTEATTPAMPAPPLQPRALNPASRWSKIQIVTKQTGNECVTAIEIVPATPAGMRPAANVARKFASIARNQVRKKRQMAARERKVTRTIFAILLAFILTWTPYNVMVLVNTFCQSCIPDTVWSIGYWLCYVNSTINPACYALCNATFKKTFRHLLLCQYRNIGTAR
assayComment: mAChR M4 cell-based functional assay (calcium mobilization, potentiation of EC20 acetylcholine response)
measurementParameters: % ACh maximum at 30 μM
readout: Emax at 30 µM (%)

Query for mAChR M4 (Homo sapiens): what Emax at 30 µM does the record show for Cc1nnc2sc(C(=O)N3CC(NC(=O)C4CC4c4ccccc4)C3)c(N)c2c1C (stereo not drawn) ?
59

a. Cc1cc(CNC(=O)c2sc3nnc(C)c(C)c3c2N)ccn1
b. CC(O)(c1ccc(CNC(=O)c2sc3nnc4c(c3c2N)CCCC4)cc1)C(F)(F)F (stereo not drawn)
c. Cc1nnc2sc(C(=O)NC3CN(Cc4ccc(F)cc4)C3)c(N)c2c1C
With regard to Emax at 30 µM, arrange the entries in ascending order, please. Give me the labels in the order the question wants.
c, b, a
(c: 38%, b: 56%, a: 96%)
